SYSTEM NAME: α1β2δ GABAA receptors (Homo sapiens, UniProt P14867+P47870)
Construct: expressed in transfected cells; host or cells: 293T cells (ATCC-CRL-1573)
Sequence (P14867 28-456): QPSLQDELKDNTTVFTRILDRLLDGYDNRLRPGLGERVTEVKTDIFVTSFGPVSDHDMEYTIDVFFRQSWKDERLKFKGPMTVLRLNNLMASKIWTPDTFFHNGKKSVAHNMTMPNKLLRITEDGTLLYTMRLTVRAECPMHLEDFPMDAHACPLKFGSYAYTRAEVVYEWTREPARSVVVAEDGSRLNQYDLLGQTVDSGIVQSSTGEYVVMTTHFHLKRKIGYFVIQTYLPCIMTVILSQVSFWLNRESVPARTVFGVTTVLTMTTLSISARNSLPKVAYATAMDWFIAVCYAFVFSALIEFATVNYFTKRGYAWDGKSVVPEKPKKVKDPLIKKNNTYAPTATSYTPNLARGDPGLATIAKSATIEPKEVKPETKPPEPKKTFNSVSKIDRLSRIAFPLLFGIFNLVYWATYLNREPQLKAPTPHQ
Sequence (P47870 25-512 limits assumed): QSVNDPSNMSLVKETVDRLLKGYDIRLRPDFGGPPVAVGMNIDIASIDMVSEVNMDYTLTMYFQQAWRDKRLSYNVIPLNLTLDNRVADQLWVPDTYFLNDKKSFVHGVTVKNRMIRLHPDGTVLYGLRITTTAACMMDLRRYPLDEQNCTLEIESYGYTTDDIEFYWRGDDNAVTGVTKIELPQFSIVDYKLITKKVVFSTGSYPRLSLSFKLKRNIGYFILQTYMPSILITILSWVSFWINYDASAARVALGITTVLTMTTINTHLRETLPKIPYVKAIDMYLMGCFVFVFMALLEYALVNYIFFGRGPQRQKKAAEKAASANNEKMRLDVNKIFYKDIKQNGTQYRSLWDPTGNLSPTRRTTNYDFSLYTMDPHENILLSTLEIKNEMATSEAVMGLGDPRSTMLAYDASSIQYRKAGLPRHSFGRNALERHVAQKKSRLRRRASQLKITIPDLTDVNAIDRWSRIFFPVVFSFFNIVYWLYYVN
Sequence (O14764 17-452 partner limits assumed): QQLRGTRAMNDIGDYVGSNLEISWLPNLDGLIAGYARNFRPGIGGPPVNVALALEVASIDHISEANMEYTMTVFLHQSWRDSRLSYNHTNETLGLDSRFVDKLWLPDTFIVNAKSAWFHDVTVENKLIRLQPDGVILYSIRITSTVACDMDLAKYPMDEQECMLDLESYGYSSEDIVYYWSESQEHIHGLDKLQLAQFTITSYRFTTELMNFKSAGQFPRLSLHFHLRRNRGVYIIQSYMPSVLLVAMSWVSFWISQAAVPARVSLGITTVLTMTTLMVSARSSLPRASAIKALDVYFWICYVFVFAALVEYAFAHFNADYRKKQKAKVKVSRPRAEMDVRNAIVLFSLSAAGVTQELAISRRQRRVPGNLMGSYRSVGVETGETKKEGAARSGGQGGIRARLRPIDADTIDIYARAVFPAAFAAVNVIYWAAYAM
PROCEDURE TEXT: GABAAR modulator FLIPR assay (membrane potential), α1β2δ
Format: cell-based
CONDITIONS USED: 293T cells transiently expressing α1β2δ GABAA receptors; FLIPR, PAM activity; read-out: EC50 in α1β2δ/293T
Label 1.0 when EC50 is strictly below 200 nM; otherwise label 0.0.

Exercise: Does C[C@@]1(O)CC[C@H]2[C@H](CC[C@@H]3[C@@H]2CC(F)(F)[C@]2(C)[C@@H](C(=O)Cn4cc(F)cn4)CC[C@@H]32)C1 [Example 7] have EC50 strictly under 200 nM?
Solution: 0.0

Exercise: Does C=C1C[C@H]2[C@@H](CC[C@@H]3C[C@](C)(O)CC[C@@H]32)[C@@H]2CC[C@H](C(C)=O)[C@@]12C [Example 2] have EC50 strictly under 200 nM?
Solution: 1.0

Exercise: Does C[C@@]1(O)CC[C@H]2[C@H](CC[C@@H]3[C@@H]2CC(F)(F)[C@]2(C)[C@@H](C(=O)Cn4cc(C#N)cn4)CC[C@@H]32)C1 [Example 6] have EC50 strictly under 200 nM?
Solution: 1.0

Exercise: Does CC(=O)[C@H]1CC[C@H]2[C@@H]3CC[C@@H]4C[C@](C)(O)CC[C@@H]4[C@H]3CC(F)(F)[C@]12C [Example 5] have EC50 strictly under 200 nM?
Solution: 1.0

Exercise: Does C[C@@]1(O)CC[C@H]2[C@H](CC[C@@H]3[C@@H]2CC(F)(F)[C@]2(C)[C@@H](C#N)CC[C@@H]32)C1 [Example 4] have EC50 strictly under 200 nM?
Solution: 0.0

Exercise: Does C[C@@]1(O)CC[C@H]2[C@H](CC[C@@H]3[C@@H]2CC(F)(F)[C@]2(C)[C@@H](C(=O)Cn4ccc(C#N)n4)CC[C@@H]32)C1 [Example 8] have EC50 strictly under 200 nM?
Solution: 0.0

---

Exercise: for every item that follows, state its recorded EC50.
SYSTEM NAME: α1β2γ2 GABAA receptors (Homo sapiens, UniProt P14867+P47870)
Construct: expressed in transfected cells; host or cells: 293T cells (ATCC-CRL-1573)
Sequence (P14867 28-456): as the sequence (P14867 28-456) above
Sequence (P47870 25-512 limits assumed): as the sequence (P47870 25-512 limits assumed) above
Sequence (P18507 40-475 partner): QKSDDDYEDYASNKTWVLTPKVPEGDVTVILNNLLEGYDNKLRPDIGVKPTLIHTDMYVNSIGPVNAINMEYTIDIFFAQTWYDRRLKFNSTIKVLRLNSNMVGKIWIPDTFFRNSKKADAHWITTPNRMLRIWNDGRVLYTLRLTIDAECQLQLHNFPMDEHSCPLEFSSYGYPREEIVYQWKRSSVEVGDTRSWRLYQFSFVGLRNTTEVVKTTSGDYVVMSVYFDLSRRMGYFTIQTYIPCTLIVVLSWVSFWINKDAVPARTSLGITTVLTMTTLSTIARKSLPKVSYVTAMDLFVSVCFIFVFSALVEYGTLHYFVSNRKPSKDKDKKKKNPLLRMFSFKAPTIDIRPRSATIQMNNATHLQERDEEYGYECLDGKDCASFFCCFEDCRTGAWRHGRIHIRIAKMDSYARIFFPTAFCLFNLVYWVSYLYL
PROCEDURE TEXT: GABAAR modulator FLIPR assay (membrane potential), α1β2γ2
Type: cell-based
CONDITIONS USED: 293T cells transiently expressing α1β2γ2 GABAA receptors; FLIPR, PAM activity; read-out: EC50 in α1β2γ2/293T
Express your answer in nM, writing the number without its unit.

Exercise: Determine from records and report EC50 for `C[C@@]1(O)CC[C@H]2[C@H](CC[C@@H]3[C@@H]2CC(F)(F)[C@]2(C)[C@@H](C#N)CC[C@@H]32)C1`
Solution: 2950

Exercise: Determine from records and report EC50 for `C=C1C[C@H]2[C@@H](CC[C@@H]3C[C@](C)(O)CC[C@@H]32)[C@@H]2CC[C@H](C(C)=O)[C@@]12C`
Solution: 280

Exercise: Determine from records and report EC50 for `C[C@@]1(O)CC[C@H]2[C@H](CC[C@@H]3[C@@H]2CC(F)(F)[C@]2(C)[C@@H](C(=O)Cn4cc(C#N)cn4)CC[C@@H]32)C1`
Solution: 470

---

SYSTEM NAME: α1β2δ GABAA receptors (Homo sapiens, UniProt P14867+P47870)
Construct: expressed in transfected cells; host or cells: 293T cells (ATCC-CRL-1573)
PROCEDURE TEXT: GABAAR modulator FLIPR assay (membrane potential), α1β2δ
Type: cell-based
MEASUREMENT NAME: pEC50
FYI, pEC50 means -log10 of a concentration in mol per litre.

Exercise: Determine from records and report pEC50 for `C=C1C[C@H]2[C@@H](CC[C@@H]3C[C@](C)(O)CC[C@@H]32)[C@@H]2CC[C@H](C#N)[C@@]12C`
Solution: 7.09
